Source listed as PubChem BioAssay (NCI).

system: TK-10 renal; test: NCI tumour cell line growth inhibition, 48 h
Reported Property: TGI

Recorded TGI, per entry:
Compound: NC(CCSCCF)C(=O)O (stereo not given)
TGI: > 100 µM
--
Compound: Oc1cc(F)cc2cccnc12
TGI: > 100 µM
--
Compound: COc1cc(/C=C/C(=O)N[C@@H]2C(=O)N3[C@@H]2SC(C)(C)[C@@H]3C(=O)O)ccc1O
TGI: > 100 µM
--
Compound: C=CC(=O)N1CCC(CNc2ncnc(N)c2-c2ccc(Oc3ccccc3)cc2)CC1
TGI: > 100 µM

Okay, now this compound:
Summary for this compound, CC(C)C(=O)/C=C/c1ccc(Cl)cc1Cl : TGI is 27.2 µM

---

tested on: RXF 393 renal; assay: NCI tumour cell line growth inhibition, 48 h
Reported TGI values follow for various compounds

Recorded TGI, per entry:
Compound: COC(=O)CCC(=O)Nc1cc(C)ccc1C
TGI: > 100 µM
--
Compound: Nc1ncnc2c1N=CN(Oc1ccccc1)N2
TGI: > 100 µM
--
Compound: NC(=S)NN=C1Cc2ccccc2C1
TGI: > 100 µM
--
Compound: O=C1NC(=O)C23C(=O)NC(=O)C12C1C=CC3CC1 (stereo not given)
TGI: > 10 µM
--
Compound: C=CCC(O)c1cc(OC)ccc1OC (stereo not given)
TGI: > 100 µM

Summary for this compound, CN(CCc1ccccn1)c1ccc2c(c1)Cc1ccccc1-2 : TGI is > 100 µM

Summary for this compound, Cn1c(=S)c2[nH]c(SCc3cccnc3)nc2n(C)c1=O : TGI is > 100 µM

Summary for this compound, Nc1ccc(Cc2ccc(N)c(C(=O)O)c2)cc1C(=O)O : TGI is > 100 µM

Summary for this compound, COc1cc2c3c(n(CCCN=[N+]=[N-])c(=O)c2cc1OC)-c1ccc(NC(C)=O)cc1C3=O : TGI is > 50 µM

Summary for this compound, O=C(c1nc2ccc(Cl)cc2[nH]c1=O)C(O)c1ccco1 (stereo not given) : TGI is > 100 µM

---

tested on: NCI-H460 lung; test: NCI tumour cell line growth inhibition, 48 h
Reported TGI values follow for various compounds

Compound: NC(=S)NN=C1Cc2ccccc2C1
Observed Measurement: > 100 µM
--
Compound: COC(=O)C[C@@H]1CC=CC(=O)/C1=C(O)/C=C/c1ccccc1
Observed Measurement: 8.2 µM
--
Compound: O=C(/C=C/c1ccco1)N1CCN(Cc2ccccc2)CC1
Observed Measurement: > 100 µM
--
Compound: O=C(O)c1ccc2[nH]c(=O)oc2c1
Observed Measurement: > 100 µM
--
Compound: COC(=O)C(Br)(C(=O)OC)C(Br)C(Br)C(Br)c1ccccc1 (stereo not given)
Observed Measurement: 32.3 µM

Okay, now this compound:
Summary for this compound, CCOC(=O)n1ccc2c(C(=O)OC)c(C(=O)OC)cc(/C(=C/C(=O)OC)C(=O)OC)c21 : TGI is > 100 µM

---

test system: T-47D breast; experiment: NCI tumour cell line growth inhibition, 48 h
Reported Property: TGI

Recorded TGI, per entry:
Compound: COc1cc(-c2cn(-c3ccc(F)cc3)c(=O)[nH]2)cc(OC)c1OC
TGI: > 100 µM
--
Compound: O=C1C2CCCCC2C(=O)N1n1c(Cc2ccccc2)n[nH]c1=O (stereo unspecified)
TGI: > 100 µM
--
Compound: CC(NC(=O)c1ccc(OP(=O)(OCc2ccc([N+](=O)[O-])o2)N(C)CCCCCl)cc1)c1ccc(OCC2CCCCC2)c(C(N)=O)c1 (stereo unspecified)
TGI: > 20.1 µM
--
Compound: CCCCCCCCCCCCCC/C(C(=O)O)=C(\C)C(=O)O
TGI: > 100 µM

Summary for this compound, CCC1=NC(N/N=C/c2ccco2)=N/C1=C\c1ccco1 : TGI is > 100 µM

Summary for this compound, CCCCCC/C=C\CCCCCCCCCc1cccc(OC)c1O : TGI is > 100 µM

Summary for this compound, CCSc1nc(N)c(C#N)c(-c2ccc(OC)c(OC)c2)c1C#N : TGI is > 50 µM

Summary for this compound, CCOC(=O)CC1C(CNC(=O)NC)OC(n2cnc3c(NC(=O)Nc4ccccc4)ncnc32)C1O[Si](C)(C)C(C)(C)C (stereo unspecified) : TGI is > 100 µM

Summary for this compound, CN1CCC(n2cnc(-c3ccc(F)cc3)c2-c2ccnc(Nc3ccccc3)n2)CC1 : TGI is > 25 µM

Summary for this compound, CC(C)(C)COS(=O)OCC(C)(C)C : TGI is > 100 µM

Summary for this compound, O=S(C(c1ccccc1)=P(c1ccccc1)(c1ccccc1)c1ccccc1)c1ccc(Cl)cc1 (stereo unspecified) : TGI is > 100 µM

---

tested on: HOP-92 NSCLC; experiment: NCI tumour cell line growth inhibition, 48 h
Reported Property: TGI

Recorded TGI, per entry:
Compound: COc1ccccc1CNC(=O)/C=C/c1ccc(O)c(O)c1
TGI: > 100 µM
--
Compound: Cc1cc(=O)[nH]c(S(=O)(=O)NC(=O)Nc2cccc(Cl)c2)n1
TGI: > 100 µM
--
Compound: CC(=O)OCc1ncccc1C(OC(C)=O)OC(C)=O
TGI: > 100 µM
--
Compound: CCCCCCCCCCCCCCCCCCOC(COP(=O)(O)OCC1OC(n2cc(F)c(=O)[nH]c2=O)CC1O)COP(=O)(O)OCC1OC(n2ccc(N)nc2=O)C(O)C1O (configuration not stated)
TGI: > 94.8 µM
--
Compound: CC(C)C1COC(C(C)(C)C2=N[C@@H](C(C)C)CO2)=N1 (some centres not stated)
TGI: > 100 µM

Summary for this compound, COc1cc(/C=C2\CC3C4CC[C@H]5C[C@@H](O)CC[C@]5(C)C4CC[C@]3(C)\C2=N\O)cc(OC)c1OC (some centres not stated) : TGI is > 100 µM

Summary for this compound, CCOC1Oc2ccccc2-c2nc(N)ncc21 (configuration not stated) : TGI is > 100 µM

Summary for this compound, CCC12CN(C(=O)OC)C3C(Br)C1CCC(=O)C32 (configuration not stated) : TGI is > 100 µM

Summary for this compound, COc1ccc(C(=O)c2cc(C)c(OC)c(C)c2)c(OC)c1OC(=O)C(Cl)Cl : TGI is > 92.9 µM

Summary for this compound, CN(C)C(=S)/N=C(\N)N(C)C : TGI is > 100 µM

---

Reported TGI values follow for various molecules
system: HL-60(TB) leukemia; test: NCI tumour cell line growth inhibition, 48 h

Recorded TGI, per entry:
Molecule: CN(C)CCSC(=Nc1ccccc1)n1cccc1
TGI: > 100 µM

Molecule: CCCCCCCCCCCCCCCCCCOC(COP(=O)(O)OCC1OC(n2cc(F)c(=O)[nH]c2=O)CC1O)COP(=O)(O)OCC1OC(n2ccc(N)nc2=O)C(O)C1O (centres undefined)
TGI: > 100 µM

Molecule: N#CC(C(=S)Nc1ccccc1)=C1Nc2ccccc2N1
TGI: > 10 µM

Okay, now this molecule:
Summary for this molecule, NC(=O)/C=C/c1c[nH]c2nccnc12 : TGI is > 38.7 µM

---

test system: HT29 colon; experiment: NCI tumour cell line growth inhibition, 48 h
Reported Property: log10 of TGI (log10 of the value in µM)
Transform log10 | Measure TGI | Unit µM

Recorded log10 of TGI, per entry:
Compound: CCN1Cc2c(/C=C/c3ccccc3)nc3ccc(OC)cc3c2N(c2cccc(Cl)c2)C1
Observed Measurement: 0.48

Compound: NC(N)=N/N=C/c1c(-c2cccs2)nc2n1CCS2
Observed Measurement: 1.49

Compound: CCOC(=O)/C=C/C1=C(Br)[C@@]2(C)CC[C@@H]3c4ccc(O)cc4CC[C@H]3[C@@H]2C1
Observed Measurement: 1.44

Compound: CN1C(CC(O)c2ccccc2)CCCC1CC(O)(c1ccccc1)c1ccccc1 (stereo not given)
Observed Measurement: 1.50

Compound: CCOc1cc(CCNC)c2c(ccc3ccc(OC)c(O)c32)c1OC
Observed Measurement: 1.49

Summary for this compound, CCN(CC)CCOc1ccccc1-n1c(C)ccc1-c1ccccc1 : log10 of TGI is 1.32

Summary for this compound, CCOC(=O)/C=C(/C(=O)OCC)n1cc(C)c(=O)[nH]c1=O : log10 of TGI is 1.18

---

system: HOP-92 NSCLC; assay: NCI tumour cell line growth inhibition, 48 h; in the data active means GI50 below about 0.43 µM; inactive means the rest
Write down the outcome that applies. Available outcomes: active, inactive

// known answers, use as guide
Compound: COc1ccc2c(ccc3oc([N+](=O)[O-])cc32)c1
Assigned Label: active
--
Compound: Cc1nc2sc(C(=O)Nc3cccc(Cl)c3C)c(N)c2cc1C(O)c1ccccc1 (stereo not drawn)
Assigned Label: inactive

[Q] Name the outcome recorded for COc1ccc(/C=C\c2cc(OC)c(OC)c(OC)c2)cc1N/C=C\C(=O)c1c[nH]c2ccccc12 in the assay.
[A] active
